- Experimental system: HIV-1 integrase wild-type (IN1-288) (HIV-1)
- Procedure summary: inhibition
- Reported conditions: all PS; 3'-processing; strand transfer 0.036 uM
Readout label: IC50 (nM)
# unit: nM | format: bare number

Q: Name the recorded IC50 for TCTTCCTCTCTCTACCCACGCTCIC [T30531 antisense GEM91 variant PT] .
A: 30

---

- Experimental system: HIV-1 integrase wild-type (IN1-288) (HIV-1)
- Procedure summary: inhibition
- Reported conditions: all phosphodiester; 3'-processing; strand transfer >0.5 uM
Readout label: IC50

Q: # get_value(readout='IC50', item= TCTTCCTCTCTCTACCCACGCTCIC [T30658 antisense GEM91 variant PD] )
A: > 500 nM
